test system: M. tuberculosis H37Rv growth inhibition; assay: M. tuberculosis H37Rv growth inhibitors, H37Rv strain (AID 1626); details: measured here: Vero cell cytotoxicity
Quick reference for CC50 among some molecules

Worked set:
CCn1c(NC(=O)C2CCCCC2)nc2ccccc21 | > 40 µM
COc1ccccc1N1CCN(Cc2nc(N)nc(Nc3ccc(C)c(Cl)c3)n2)CC1 | > 40 µM
O=C(Nc1nnc(-c2ccc3c(c2)CCCC3)o1)c1ccc(Cl)cc1Cl | > 40 µM
CCOC(=O)Cc1csc(NC(=O)c2csc3c2CCCC3)n1 | > 40 µM
Cn1c(N=Nc2ccccc2)nc2ccccc21 | 16.1 µM

Kindly consider the entry below.
Q) Identify CC50 associated with the molecule O=C(Nc1nnc(-c2ccc3c(c2)OCCO3)o1)c1ccc(Cc2ccccc2)cc1
A) 38.1 µM

====

tested on: M. tuberculosis H37Rv growth inhibition; assay: M. tuberculosis H37Rv growth inhibitors, H37Rv strain (AID 1626); settings: measured here: Vero cell cytotoxicity
Quick reference for CC50 among some compounds

Worked set:
O=C(/C=C/c1ccc(Br)cc1)c1ccco1 | > 40 µM
CSc1ccc(/C=C/C(=O)c2ccc(NC(=O)Cc3ccccc3)cc2)cc1 | > 40 µM
COc1ccc(N=c2cc(-c3ccc(O)cc3)oc3ccccc23)cc1 | 34.3 µM

Q) Identify CC50 associated with the compound COc1cc(/C=N/NC(=Nc2ccc(C)cc2)c2nc3ccccc3s2)ccc1O
A) > 40 µM

Q) Identify CC50 associated with the compound O=C(c1cc2nc(-c3ccccc3)cc(-c3ccccc3)n2n1)N1CCN(C(=O)c2ccco2)CC1
A) > 40 µM

Q) Identify CC50 associated with the compound COc1ccc(NC2=CC(c3ccc(OC)cc3)N(c3ccc(OC)cc3)C2=O)cc1 (configuration not stated)
A) > 40 µM

Q) Identify CC50 associated with the compound CC(C)NCC(O)Cn1c2c(c3ccccc31)CCc1c-2cnn1-c1ccccc1 (configuration not stated)
A) 7.97 µM

====

test system: M. tuberculosis H37Rv growth inhibition; test: M. tuberculosis H37Rv growth inhibitors, H37Rv strain (AID 1626); conditions: measured here: Vero cell cytotoxicity
MEASURED_ATTRIBUTE: CC50

O=C(CNCc1ccco1)Nc1ccc(Oc2ccccc2)cc1 | > 40 µM

Q) Identify CC50 associated with the compound Cc1ccc2nc(Cl)c(/C=C/C(=O)c3ccco3)cc2c1
A) 25 µM

Q) Identify CC50 associated with the compound O=C(Nc1cc(Cl)ccc1O)c1cc2n(n1)C(C(F)(F)F)CC(c1ccc3c(c1)OCO3)N2 (centres undefined)
A) > 40 µM

Q) Identify CC50 associated with the compound CSc1ccc(N=Nc2c(C)[nH]n(C)c2=O)cc1
A) > 40 µM

====

test system: M. tuberculosis H37Rv growth inhibition; test: M. tuberculosis H37Rv growth inhibitors, H37Rv strain (AID 1626)
MEASURED_ATTRIBUTE: IC50

Q) Identify IC50 associated with the compound CCCCCCCCn1c2c(c(=N)c3ccccc31)CCC2
A) 6.24 µM

Q) Identify IC50 associated with the compound N#CC1=C(c2ccccc2)/C(=C/c2ccccc2)OC1=O
A) 17.6 µM

Q) Identify IC50 associated with the compound CCN(CCCCN1C(=O)c2ccccc2C1=O)c1ccc2c(c1)C(=O)N(C)C2=O
A) 12 µM

Q) Identify IC50 associated with the compound CCCCCC(=O)c1ccc(O)cc1O
A) 63.3 µM

Q) Identify IC50 associated with the compound O=C1CC(=C(c2ccccc2)c2ccccc2)C(=O)N1CCCCN1CCN(c2cccc(Cl)c2)CC1
A) 4.47 µM

Q) Identify IC50 associated with the compound CCc1ccc2[nH]c(O)c(N=Nc3nc(-c4ccccc4)cs3)c2c1
A) 1.81 µM

Q) Identify IC50 associated with the compound CN(C)c1ccc(C(=O)Nc2nnc(C3=COCCO3)o2)cc1
A) 23.5 µM

Q) Identify IC50 associated with the compound Cc1ccc(-c2cc(C(F)F)n3ncc(C(=O)Nc4c(C)nn(Cc5ccccc5Cl)c4C)c3n2)cc1
A) 2.16 µM

Q) Identify IC50 associated with the compound CCOC(=O)COc1ccc(S(=O)(=O)NCCC2=CCCCC2)cc1
A) 12.1 µM

Q) Identify IC50 associated with the compound N#CC(c1ccc(Cl)cc1)c1ccc2c(C(F)(F)F)cc(C(F)(F)F)nc2n1 (stereo not drawn)
A) 0.571 µM

Q) Identify IC50 associated with the compound CC(=O)Oc1ccc2oc3c(c2c1)C(=O)CCC3
A) 12 µM

Q) Identify IC50 associated with the compound Cc1ccc(-c2nnc(SCC#CCOC(=O)c3ccco3)o2)cc1
A) < 0.391 µM

Q) Identify IC50 associated with the compound Cc1cc(NC(=O)c2c(F)cccc2Cl)n(-c2nc3ccccc3[nH]2)n1
A) 16.5 µM

====

test system: M. tuberculosis H37Rv growth inhibition; experiment: M. tuberculosis H37Rv growth inhibitors, H37Rv strain (AID 1626); details: measured here: IC90 against H37Rv
MEASURED_ATTRIBUTE: IC90

Cc1nccc(-c2ccc(-n3c(C)ccc3C)cc2)n1 | > 100 µM
CCC(=O)c1ccc(OCC(=O)Nc2ccc3nc(C)sc3c2)cc1 | > 100 µM

Kindly consider the entry below.
Q) Identify IC90 associated with the compound CC(Oc1ccc2oc3ccccc3c2c1)C(=O)NC12CC3CC(CC(C3)C1)C2 (stereo not drawn)
A) > 100 µM

====

system: M. tuberculosis H37Rv growth inhibition; assay: M. tuberculosis H37Rv growth inhibitors, H37Rv strain (AID 1626)
MEASURED_ATTRIBUTE: IC50

Worked set:
Cc1[nH]n(-c2ccc(Cl)cc2)c(=O)c1N=Nc1cccnc1 | 3.39 µM
COc1ccc(OCc2n(CC(=O)OC3CC(C)CCC3C(C)C)c3ccccc3[n+]2C)cc1 (stereo not given) | 3.34 µM
N#Cc1ncc(-c2ccc3c(c2)OCCOCCOCCOCCOCCO3)nc1C#N | 1.8 µM
CCC(=O)c1ccc(OCC(=O)Nc2ccc3nc(C)sc3c2)cc1 | 6.26 µM

Kindly consider the entry below.
Q) Identify IC50 associated with the molecule O=C(/C=C/c1cccc([N+](=O)[O-])c1)c1cccs1
A) 11.1 µM
